molecular target: Microtubule-associated protein 1 light chain 3 beta/Epidermal growth factor receptor (Homo sapiens, UniProt P00533+Q9GZQ8); experiment: ATTEC activity at LC3B/EGFR in human HCC827 cells assessed as protein degradation by immunoblot analysis; format: cell-based
quantity-name: DC50

Worked cases, answers included:
| chem-smiles | DC50 |
| --- | --- |
| COc1cc2ncnc(Nc3ccc(F)c(Cl)c3)c2cc1OCCCCNC(=O)COc1c(Br)cc(/C=C2\C(=O)Nc3ccc(I)cc32)cc1Br | > 10 µM |
| COc1cc2ncnc(Nc3ccc(F)c(Cl)c3)c2cc1OCCOCCOCCNC(=O)COc1c(Br)cc(/C=C2\C(=O)Nc3ccc(I)cc32)cc1Br | 3.62 µM |
| COc1cc2ncnc(Nc3ccc(F)c(Cl)c3)c2cc1OCCCCCCCCCCNC(=O)COc1c(Br)cc(/C=C2\C(=O)Nc3ccc(I)cc32)cc1Br | > 10 µM |
| COc1cc2ncnc(Nc3ccc(F)c(Cl)c3)c2cc1OCCCCCCCCNC(=O)COc1c(Br)cc(/C=C2\C(=O)Nc3ccc(I)cc32)cc1Br | > 10 µM |
| COc1cc2ncnc(Nc3ccc(F)c(Cl)c3)c2cc1OCCOCCNC(=O)COc1c(Br)cc(/C=C2\C(=O)Nc3ccc(C)cc32)cc1Br | > 10 µM |

[in] Endpoint output: DC50 of COc1cc2ncnc(Nc3ccc(F)c(Cl)c3)c2cc1OCCOCCOCCNC(=O)COc1c(Br)cc(/C=C2\C(=O)Nc3ccccc32)cc1Br . Value?
[out] > 10 µM

[in] Consider the compound shown here: COc1cc2ncnc(Nc3ccc(F)c(Cl)c3)c2cc1OCCOCCOCCOCCNC(=O)COc1c(Br)cc(/C=C2\C(=O)Nc3ccccc32)cc1Br What is its recorded DC50?
[out] > 10 µM

[in] # DC50 lookup, item COc1cc2ncnc(Nc3ccc(F)c(Cl)c3)c2cc1OCCCCCCNC(=O)COc1c(Br)cc(/C=C2\C(=O)Nc3ccc(I)cc32)cc1Br
[out] > 10 µM

[in] What value of DC50 has been reported for the following compound? COc1cc2ncnc(Nc3ccc(F)c(Cl)c3)c2cc1OCCOCCOCCOCCNC(=O)COc1c(Br)cc(/C=C2\C(=O)Nc3ccc(Br)cc32)cc1Br
[out] 2.77 µM

[in] Give its DC50 value. Item: COc1cc2ncnc(Nc3ccc(F)c(Cl)c3)c2cc1OCCOCCOCCNC(=O)COc1c(Br)cc(/C=C2\C(=O)Nc3ccc(Cl)cc32)cc1Br
[out] 8.49 µM

[in] Which DC50 is reported for this compound? COc1cc2ncnc(Nc3ccc(F)c(Cl)c3)c2cc1OCCOCCOCCOCCNC(=O)COc1c(Br)cc(/C=C2\C(=O)Nc3ccc(C)cc32)cc1Br
[out] > 10 µM

[in] Entry under review: COc1cc2ncnc(Nc3ccc(F)c(Cl)c3)c2cc1OCCOCCNC(=O)COc1c(Br)cc(/C=C2\C(=O)Nc3ccc(Cl)cc32)cc1Br . Reported DC50?
[out] 0.94 µM

[in] Quick one: DC50 of COc1cc2ncnc(Nc3ccc(F)c(Cl)c3)c2cc1OCCOCCNC(=O)COc1c(Br)cc(/C=C2\C(=O)Nc3ccc(I)cc32)cc1Br ?
[out] > 10 µM

Hello, the source for this data is ChEMBL document CHEMBL5500346, in case you need it.
